Value source: ChEMBL document CHEMBL1138270

Test system: Mus musculus
Assay: Phototoxicity in Swiss Albino mouse assessed as ear erythema at 140 mg/kg, po after 24 hrs of irradiation
Type: organism-based
Parameters: dose 140 mg/kg, route oral
Settings: in vivo

>  <molecule>
CC1(C)COCN1c1nc2c(cc1[N+](=O)[O-])c(=O)c(C(=O)O)cn2C(C)(C)C

>  <Activity>
Non-toxic

$$$$
>  <molecule>
COc1ccc(CC2C3=C(CCCC3)CCN2c2nc3c(cc2[N+](=O)[O-])c(=O)c(C(=O)O)cn3C2CC2)cc1 (configuration not stated)

>  <Activity>
Non-toxic

$$$$
>  <molecule>
O=C(O)c1cn(-c2ccc(F)cc2)c2nc(N3CCSCC3)c([N+](=O)[O-])cc2c1=O

>  <Activity>
Non-toxic

$$$$
>  <molecule>
CC(C)(C)n1cc(C(=O)O)c(=O)c2cc([N+](=O)[O-])c(N3CCSCC3)nc21

>  <Activity>
Non-toxic

$$$$
>  <molecule>
O=C(O)c1cn2c(n1)CN(c1nc3c(cc1[N+](=O)[O-])c(=O)c(C(=O)O)cn3-c1ccc(F)cc1)CC2

>  <Activity>
Toxic

$$$$
>  <molecule>
CC1CN(c2nc3c(cc2[N+](=O)[O-])c(=O)c(C(=O)O)cn3-c2ccc(F)cc2)CC(C)O1 (configuration not stated)

>  <Activity>
Non-toxic

$$$$
>  <molecule>
CCn1cc(C(=O)O)c(=O)c2cc(F)c(N3CCNC(C)C3)c(F)c21 (configuration not stated) [LOMEFLOXACIN]

>  <Activity>
Toxic

$$$$
